assay: PK protocol, oral administration; type: in vivo, male Sprague Dawley rats; settings: male, Sprague Dawley, rat, plasma, po, dose (mg/kg)
Structures can show the parent of a compound that is named as a salt.
metric.name: AUC (ng·h/mL)

Some entries whose results are on file:
INSERT INTO assay_data (molecule, metric_name, readout_units, reading) VALUES
  ('CC(c1cc(S(=O)(=O)NC(=O)Nc2c3c(cc4c2CCC4)CCC3)nn1C)N(C)C (single isomer, unassigned; enantiomer 1)', 'AUC', 'ng·h/mL', 17000),
  ('CN(C)Cc1cc(S(=O)(=O)NC(=O)Nc2c3c(cc4c2CCC4)CCC3)nn1C1CC1', 'AUC', 'ng·h/mL', 21200);

P. CC(C)c1cc(Cl)cc(C(C)C)c1NC(=O)NS(=O)(=O)c1cc(CN(C)C)n(C)n1 [Example 93, Sodium Salt]
Q. CNCc1cc(S(=O)(=O)NC(=O)Nc2c3c(cc4c2CCC4)CCC3)nn1C(C)C
Prompt line: Between these two entries, P and Q , state which has the higher AUC. // caller expects the label of the chosen entry
Response line: Q
(Q: 19100 ng·h/mL, P: 3310 ng·h/mL)
